Species: Rattus norvegicus
assay: Binding affinity to rat corpus striatum was determined using [3H]NPA as radioligand
quantityMeasured: Ki (µM)
Answers are plain numbers, in µM.

Provide Ki for all items below, preserving their order.
1. CN1CCc2cccc3c2[C@H]1Cc1ccc(O)c(O)c1-3
2. NC1COc2cc(O)c(O)cc2C1 (stereo not drawn)
3. NC1CCc2cc(O)c(O)cc2C1 (stereo not drawn)

a:
1: 0.0105; 2: 0.144; 3: 0.012
